Target: T1, rGyr_fl Y851F (full-length reverse gyrase) (Thermotoga maritima, UniProt O51934 1-1104, Y851F)
T1 sequence: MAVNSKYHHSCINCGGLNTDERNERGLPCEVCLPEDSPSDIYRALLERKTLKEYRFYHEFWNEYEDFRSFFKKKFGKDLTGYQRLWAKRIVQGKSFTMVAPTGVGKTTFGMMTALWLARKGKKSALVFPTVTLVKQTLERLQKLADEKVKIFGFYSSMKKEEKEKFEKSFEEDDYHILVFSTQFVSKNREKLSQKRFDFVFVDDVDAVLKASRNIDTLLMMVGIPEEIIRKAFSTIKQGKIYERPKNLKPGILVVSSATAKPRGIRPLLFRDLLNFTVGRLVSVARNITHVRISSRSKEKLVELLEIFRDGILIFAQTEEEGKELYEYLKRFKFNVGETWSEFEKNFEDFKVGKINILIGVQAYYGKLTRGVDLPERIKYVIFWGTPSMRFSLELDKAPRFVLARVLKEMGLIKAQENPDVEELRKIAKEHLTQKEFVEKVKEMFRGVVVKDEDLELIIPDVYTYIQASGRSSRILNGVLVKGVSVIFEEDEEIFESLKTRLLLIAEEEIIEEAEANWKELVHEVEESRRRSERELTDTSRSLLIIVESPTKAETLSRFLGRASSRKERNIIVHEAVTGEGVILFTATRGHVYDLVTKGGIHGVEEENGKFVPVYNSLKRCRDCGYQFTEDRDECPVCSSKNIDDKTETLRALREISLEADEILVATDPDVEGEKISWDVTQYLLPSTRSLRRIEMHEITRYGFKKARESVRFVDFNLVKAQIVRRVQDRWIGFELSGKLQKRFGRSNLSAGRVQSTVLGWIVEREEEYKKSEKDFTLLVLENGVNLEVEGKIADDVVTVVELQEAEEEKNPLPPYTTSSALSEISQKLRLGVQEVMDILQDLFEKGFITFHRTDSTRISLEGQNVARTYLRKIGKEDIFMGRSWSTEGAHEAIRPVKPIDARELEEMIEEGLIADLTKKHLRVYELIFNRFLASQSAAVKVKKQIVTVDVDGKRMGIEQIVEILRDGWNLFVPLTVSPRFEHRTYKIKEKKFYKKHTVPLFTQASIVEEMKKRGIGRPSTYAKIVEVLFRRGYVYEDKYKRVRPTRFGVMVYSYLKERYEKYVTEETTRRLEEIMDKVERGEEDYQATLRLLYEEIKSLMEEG
Experiment: fluorescence anisotropy
Kd values, listed per item
The answer is to be given in nM; state only the numeric part.

[[record]]
binder = "60-base ssDNA (ssDNA) DNA: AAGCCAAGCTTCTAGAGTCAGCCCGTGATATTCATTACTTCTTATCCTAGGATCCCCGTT"
property = "Kd"
measurement = 60


Lab book: Kd of 60 bp dsDNA (dsDNA) DNA 1: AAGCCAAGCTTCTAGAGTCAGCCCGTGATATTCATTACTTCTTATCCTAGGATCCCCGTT DNA 2: AACGGGGATCCTAGGATAAGAAGTAATGAATATCACGGGCTGACTCTAGAAGCTTGGCTT noted as 250

Sourced from paper PMC2566858
